Target: Gal3S6S(b1-4)GlcNAc6S
Test: glycan array binding signal (z-score within array); higher = stronger binding
Conditions: glycan notation: IUPAC condensed, linker removed
About 410 targets per protein were measured; listed, in parts, are those with the strongest signals and a random draw of the rest.
metric name: glycan array binding signal (z-score)

Example entries begin here.
| binder | glycan array binding signal (z-score) |
| --- | --- |
| CLC (Homo sapiens), Q9UBD9 (protein) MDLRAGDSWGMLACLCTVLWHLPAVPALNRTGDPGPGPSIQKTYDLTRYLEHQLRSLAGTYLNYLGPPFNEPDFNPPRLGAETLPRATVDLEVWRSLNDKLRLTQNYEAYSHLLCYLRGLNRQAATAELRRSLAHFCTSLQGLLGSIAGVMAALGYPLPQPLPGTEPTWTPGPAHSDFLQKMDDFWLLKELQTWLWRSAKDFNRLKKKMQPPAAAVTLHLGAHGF | 11.1 |
| rCNL (Clitocybe nebularis), B2ZRS9 (protein) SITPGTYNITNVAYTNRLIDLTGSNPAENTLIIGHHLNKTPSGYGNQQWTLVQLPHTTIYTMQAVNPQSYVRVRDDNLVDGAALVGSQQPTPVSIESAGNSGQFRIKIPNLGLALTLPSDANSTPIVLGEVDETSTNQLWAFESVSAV | -0.283 |
| SynCAM (Mus musculus) (protein) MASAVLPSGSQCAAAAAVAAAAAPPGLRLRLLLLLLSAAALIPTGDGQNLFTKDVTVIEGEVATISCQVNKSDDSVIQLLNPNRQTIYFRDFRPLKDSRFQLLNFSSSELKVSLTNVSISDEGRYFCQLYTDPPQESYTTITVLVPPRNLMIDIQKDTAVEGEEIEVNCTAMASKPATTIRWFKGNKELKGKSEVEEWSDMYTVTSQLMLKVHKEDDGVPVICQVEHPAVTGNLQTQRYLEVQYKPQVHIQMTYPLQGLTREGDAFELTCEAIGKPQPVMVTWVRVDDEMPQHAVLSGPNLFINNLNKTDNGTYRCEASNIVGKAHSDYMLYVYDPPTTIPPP | 2.69 |

Entry DCAL1 (Homo sapiens), Q8IZS7 (protein) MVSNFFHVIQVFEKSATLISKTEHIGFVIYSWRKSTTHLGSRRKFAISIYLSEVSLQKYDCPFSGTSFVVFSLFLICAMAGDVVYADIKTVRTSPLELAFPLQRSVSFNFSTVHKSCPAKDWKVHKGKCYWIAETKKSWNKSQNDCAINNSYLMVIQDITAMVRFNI : reported glycan array binding signal (z-score) = ?
1.34

Entry TREM-2 (Mus musculus), Q99NH8 (protein) MGPLHQFLLLLITALSQALNTTVLQGMAGQSLRVSCTYDALKHWGRRKAWCRQLGEEGPCQRVVSTHGVWLLAFLKKRNGSTVIADDTLAGTVTITLKNLQAGDAGLYQCQSLRGREAEVLQKVLVEVLEDPLDDQDAGDLWVPEESSSFEGAQVEHSTSRNQETSFPPTSILLLLACVLLSKFLAASILWAVARGRQKPGTPVVRGLDCGQDAGHQLQILTGPGGT : reported glycan array binding signal (z-score) = ?
4.74

Source listed as the supplement of paper PMC8728848.
